Entry source: ChEMBL document CHEMBL1909494

# System: Bacillus subtilis
# PROCEDURE TEXT: Antibacterial activity against Bacillus subtilis ATCC 6633 by agar dilution method
# Format: functional
EXPERIMENTAL ENDPOINT: MIC (µg/mL)
Respond with the bare value in µg/mL.

The compound Cc1nnsc1C(=O)NNC(=S)Nc1ccc(Br)cc1 showed MIC equal to 100

The compound Cc1nnsc1C(=O)NNC(=S)Nc1ccc(F)cc1 showed MIC equal to 200

The compound O=C(NNC(=S)Nc1ccc([N+](=O)[O-])cc1)c1cc2ccccc2[nH]1 showed MIC equal to 50

The compound Cc1nnsc1C(=O)NNC(=S)Nc1cccc(F)c1 showed MIC equal to 400

###

# Test system: Staphylococcus aureus
# PROCEDURE TEXT: Antibacterial activity against Staphylococcus aureus ATCC 29213 by agar dilution method
# Assay type: functional
Give measured log10(MIC) for each item. Keep answers brief.
Heads up: the numbers are on a log10 scale; they represent MIC in µg/mL.

Tested on Staphylococcus aureus: Cc1nnsc1C(=O)NNC(=S)Nc1cc(F)ccc1F . Observed log10(MIC): 2.60

Tested on Staphylococcus aureus: Cc1nnsc1C(=O)NNC(=S)Nc1ccc(Cl)cc1 . Observed log10(MIC): 1.70

Tested on Staphylococcus aureus: Cc1nnsc1C(=O)NNC(=S)Nc1ccc(Br)cc1 . Observed log10(MIC): 2.30

Tested on Staphylococcus aureus: Cc1nnsc1C(=O)NNC(=S)Nc1ccccc1C(F)(F)F . Observed log10(MIC): 2.30

Tested on Staphylococcus aureus: O=C(O)c1cn(C2CC2)c2cc(N3CCNCC3)c(F)cc2c1=O [CIPROFLOXACIN] . Observed log10(MIC): -0.30

Tested on Staphylococcus aureus: Cc1nnsc1C(=O)NNC(=S)Nc1ccc([N+](=O)[O-])cc1 . Observed log10(MIC): 2.30

Tested on Staphylococcus aureus: Cc1nnsc1C(=O)NNC(=S)Nc1cccc(F)c1 . Observed log10(MIC): 2.60

Tested on Staphylococcus aureus: O=C(NNC(=S)Nc1ccccc1Br)c1cc2ccccc2[nH]1 . Observed log10(MIC): 2.00

Tested on Staphylococcus aureus: Cc1nnsc1C(=O)NNC(=S)Nc1ccccc1 . Observed log10(MIC): 2.60

Tested on Staphylococcus aureus: O=C(NNC(=S)Nc1ccc([N+](=O)[O-])cc1)c1cc2ccccc2[nH]1 . Observed log10(MIC): 1.70

Tested on Staphylococcus aureus: O=C(NNC(=S)Nc1ccccc1F)c1cc2ccccc2[nH]1 . Observed log10(MIC): 2.30

Tested on Staphylococcus aureus: Cc1nnsc1C(=O)NNC(=S)Nc1ccc(Cl)cc1Cl . Observed log10(MIC): 2.00

Tested on Staphylococcus aureus: O=C(NNC(=S)Nc1ccc(F)cc1F)c1cc2ccccc2[nH]1 . Observed log10(MIC): 2.30

Tested on Staphylococcus aureus: Cc1nnsc1C(=O)NNC(=S)Nc1ccc(F)cc1 . Observed log10(MIC): 2.60

Tested on Staphylococcus aureus: O=C(NNC(=S)Nc1ccc(F)cc1)c1cc2ccccc2[nH]1 . Observed log10(MIC): 2.00

###

Give measured MIC for each item. Keep answers brief.
# Tested on: Bacillus subtilis
# PROCEDURE TEXT: Antibacterial activity against Bacillus subtilis ATCC 6633 by agar dilution method
# Format: functional
Respond with the bare value in mg/L.

The compound Cc1nnsc1C(=O)NNC(=S)Nc1ccc(Cl)cc1 showed MIC equal to 50

The compound Cc1nnsc1C(=O)NNC(=S)Nc1ccccc1C(F)(F)F showed MIC equal to 200

The compound O=C(NNC(=S)Nc1ccccc1F)c1cc2ccccc2[nH]1 showed MIC equal to 100

The compound Cc1nnsc1C(=O)NNC(=S)Nc1cc(F)ccc1F showed MIC equal to 200

The compound Cc1nnsc1C(=O)NNC(=S)Nc1ccc([N+](=O)[O-])cc1 showed MIC equal to 100

The compound O=C(NNC(=S)Nc1ccccc1Br)c1cc2ccccc2[nH]1 showed MIC equal to 200

The compound O=C(NNC(=S)Nc1ccc(F)cc1)c1cc2ccccc2[nH]1 showed MIC equal to 100

The compound Cc1nnsc1C(=O)NNC(=S)Nc1ccc(Cl)cc1Cl showed MIC equal to 100

The compound Cc1nnsc1C(=O)NNC(=S)Nc1ccccc1 showed MIC equal to 400

The compound O=C(NNC(=S)Nc1ccc(F)cc1F)c1cc2ccccc2[nH]1 showed MIC equal to 100

###

# System: Bacillus cereus
# PROCEDURE TEXT: Antibacterial activity against Bacillus cereus ATCC 11778 by agar dilution method
# Assay type: functional
# t = MIC below 100 µg/mL (exclusive); f = MIC at/above 100 µg/mL

Item Cc1nnsc1C(=O)NNC(=S)Nc1ccccc1C(F)(F)F : MIC beneath 100 µg/mL, strictly? f

Item Cc1nnsc1C(=O)NNC(=S)Nc1cc(F)ccc1F : MIC beneath 100 µg/mL, strictly? f

Item O=C(NNC(=S)Nc1ccccc1F)c1cc2ccccc2[nH]1 : MIC beneath 100 µg/mL, strictly? f

Item O=C(NNC(=S)Nc1ccc([N+](=O)[O-])cc1)c1cc2ccccc2[nH]1 : MIC beneath 100 µg/mL, strictly? t

Item Cc1nnsc1C(=O)NNC(=S)Nc1ccccc1 : MIC beneath 100 µg/mL, strictly? f

Item Cc1nnsc1C(=O)NNC(=S)Nc1ccc(F)cc1 : MIC beneath 100 µg/mL, strictly? f

Item O=C(O)c1cn(C2CC2)c2cc(N3CCNCC3)c(F)cc2c1=O [CIPROFLOXACIN] : MIC beneath 100 µg/mL, strictly? t

Item Cc1nnsc1C(=O)NNC(=S)Nc1ccc(Cl)cc1 : MIC beneath 100 µg/mL, strictly? t

###

# Tested on: Bacillus cereus
# PROCEDURE TEXT: Antibacterial activity against Bacillus cereus ATCC 11778 by agar dilution method
# Assay type: functional
EXPERIMENTAL ENDPOINT: MIC (µg/mL)
Respond with the bare value in µg/mL.

The compound Cc1nnsc1C(=O)NNC(=S)Nc1cccc(F)c1 showed MIC equal to 400

The compound Cc1nnsc1C(=O)NNC(=S)Nc1ccc(Cl)cc1Cl showed MIC equal to 100

The compound O=C(NNC(=S)Nc1ccccc1Br)c1cc2ccccc2[nH]1 showed MIC equal to 200

The compound Cc1nnsc1C(=O)NNC(=S)Nc1ccc([N+](=O)[O-])cc1 showed MIC equal to 100

###

# Tested on: Bacillus cereus
# PROCEDURE TEXT: Antibacterial activity against Bacillus cereus ATCC 11778 by agar dilution method
# Assay type: functional
EXPERIMENTAL ENDPOINT: MIC (µg/mL)
Respond with the bare value in µg/mL.

The compound O=C(NNC(=S)Nc1ccc(F)cc1)c1cc2ccccc2[nH]1 showed MIC equal to 100

The compound O=C(NNC(=S)Nc1ccc(F)cc1F)c1cc2ccccc2[nH]1 showed MIC equal to 100

The compound Cc1nnsc1C(=O)NNC(=S)Nc1ccc(Br)cc1 showed MIC equal to 100
